This section presents compounds with their documented IC50 values.
# assayed_target: CDK5/GST-p25 (Homo sapiens, UniProt Q00535)
# Construct: The final construct, encoding for full-length human CDK5; made in house; host or cells: Sf21 insect cells (baculovirus co-infection)
# Sequence (Q00535 whole entry): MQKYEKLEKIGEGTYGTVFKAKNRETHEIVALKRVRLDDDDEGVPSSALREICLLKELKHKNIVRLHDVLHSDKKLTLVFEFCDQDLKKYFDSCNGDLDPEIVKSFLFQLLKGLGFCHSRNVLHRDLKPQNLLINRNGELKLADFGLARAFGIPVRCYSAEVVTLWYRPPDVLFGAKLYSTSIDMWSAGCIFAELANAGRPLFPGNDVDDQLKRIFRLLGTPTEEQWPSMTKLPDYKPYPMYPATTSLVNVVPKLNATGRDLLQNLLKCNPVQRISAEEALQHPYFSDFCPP
# Sequence (Q15078 108-307 partner limits assumed): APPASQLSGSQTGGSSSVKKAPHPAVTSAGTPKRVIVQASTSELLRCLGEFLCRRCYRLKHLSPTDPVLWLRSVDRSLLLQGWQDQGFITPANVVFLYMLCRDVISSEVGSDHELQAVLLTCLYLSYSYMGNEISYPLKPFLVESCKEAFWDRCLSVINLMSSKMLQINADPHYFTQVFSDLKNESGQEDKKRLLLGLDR
# assay_remarks: Inhibition of CDK5/GST-p25 kinase activity (ELISA with time-resolved fluorescence readout)
# Format: biochemical
# condition_info: class symbols

A selection of reference data follows.
| compound | IC50 |
| --- | --- |
| CCCn1cc2c(C3C(=O)Nc4ccc(Br)cc43)nc(NCCN(C)C)nc2n1 (stereo not shown) | < 0.3 µM |
| O=C1Nc2ccc(Br)cc2C1c1nc(NCc2cccnc2)nc2c1CCC2 (stereo not shown) | 0.3 to 3 µM |
| CNCCCNc1nc(C2C(=O)Nc3ccc(Br)cc32)c2cn(CC(C)C)nc2n1 (stereo not shown) | < 0.3 µM |
| COCCn1cc2c(C3C(=O)Nc4ccc(Br)cc43)nc(NCCN3CCOCC3)nc2n1 (stereo not shown) | < 0.3 µM |
| Cn1ncc2c(C3C(=O)Nc4ccc(Br)cc43)ncnc21 (stereo not shown) | < 0.3 µM |

Next item in the queue.
Prompt: Quick check: IC50 on CDK5/GST-p25 (Homo sapiens, UniProt Q00535), item O=C1Nc2ccc(C(F)(F)F)cc2C1c1ncnc2nn(C3CCCC3)cc12 (stereo not shown) ?
Response: < 0.3 µM
